Source listed as patent US8513232B2.

parameterMeasured: melting point

• O=C(N1CCCC1)N1CCN(c2ccc3c(c2)CCC2(CCN(C4CCC4)CC2)O3)CC1 = 165 to 167 °C
• COc1ccc(-c2ccc3c(c2)COC2(CCN(C4CCC4)CC2)O3)nc1 = 123 to 126 °C
• CC1CN=C(CCc2ccc3c(c2)COC2(CCN(C4CCC4)CC2)O3)O1 (stereo not shown) = 61 to 63 °C
• N#Cc1cccc(Nc2ccc3c(c2)COC2(CCN(C4CCC4)CC2)O3)c1 = 55 to 60 °C

Recorded melting point (compound `Nc1ccc2c(c1)COC1(CCN(C3CCC3)CC1)O2` ): 160 to 162 °C

Recorded melting point (compound `CC(C)(C)OC(=O)N1CC[C@@H](Oc2ccc3c(c2)CCC2(CCN(C4CCC4)CC2)O3)C1` ): 280 to 283 °C

Recorded melting point (compound `CN(C)c1cc(C(=O)Nc2ccc3c(c2)COC2(CCN(C4CCC4)CC2)O3)ccn1` ): 213 to 215 °C

Recorded melting point (compound `O=C1CC=C(c2ccc3c(c2)COC2(CCN(C4CCC4)CC2)O3)CC1` ): 153 to 155 °C

Recorded melting point (compound `CNC(=O)c1ccc(-c2cc(F)c3c(c2)COC2(CCN(C4CCC4)CC2)O3)cc1F` ): 156 to 158 °C

---

Below is a list of entries, each paired with its recorded melting point value.

* O=c1ccc(-c2ccc3c(c2)COC2(CCN(CC4CCOCC4)CC2)O3)c[nH]1 [Example 722] | 245 to 248 °C
* OC(c1ccc2c(c1)COC1(CCN(C3CCC3)CC1)O2)C1CCSCC1 (stereo not drawn) [Example 496] | 85 to 90 °C
* CCc1cc(=O)[nH]cc1-c1ccc2c(c1)COC1(CCN(C3CCC3)CC1)O2 [Example 803] | 107 to 109 °C
* COCCNC(=O)c1ccc(-c2ccc3c(c2)CCC2(CCN(C4CCC4)CC2)O3)cc1F [Example 217] | 190 to 192 °C

Recorded melting point (compound Cc1cc(=O)n(CC(F)(F)F)cc1-c1ccc2c(c1)COC1(CCN(C3CCC3)CC1)O2 [Example 755] ): 60 to 62 °C

---

measurementTarget: rat histamine H3 receptor (Rattus norvegicus, UniProt Q9QYN8)
Construct: encoding the entire 445-amino-acid rat histamine H3 receptor; expressed in transfected cells; membrane preparation
Sequence (Q9QYN8 whole entry): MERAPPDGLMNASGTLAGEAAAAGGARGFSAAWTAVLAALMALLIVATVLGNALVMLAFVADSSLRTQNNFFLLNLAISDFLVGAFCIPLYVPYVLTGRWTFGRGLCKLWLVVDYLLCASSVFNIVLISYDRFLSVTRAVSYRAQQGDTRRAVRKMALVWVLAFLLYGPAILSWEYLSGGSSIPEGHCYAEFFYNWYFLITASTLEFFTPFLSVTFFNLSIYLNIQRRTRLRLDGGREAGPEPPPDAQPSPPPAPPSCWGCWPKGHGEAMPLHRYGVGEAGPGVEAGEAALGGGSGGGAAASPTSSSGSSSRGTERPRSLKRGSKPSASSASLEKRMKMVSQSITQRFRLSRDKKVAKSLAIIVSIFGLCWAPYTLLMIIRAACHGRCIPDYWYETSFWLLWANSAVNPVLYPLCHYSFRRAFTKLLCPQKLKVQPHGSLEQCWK
testMethodNotes: Rat H3 radioligand binding ([3H]-N-alpha-methylhistamine, SPA)
statedConditions: Table C; rat H3 binding; read-out: Rat H3 Ki
parameterMeasured: Ki

- Clc1ccc(-c2ccc3c(c2)CCC2(CCN(C4CCC4)CC2)O3)cn1 [Example 371]: < 0.2 µM

Reported Ki (rat histamine H3 receptor (Rattus norvegicus, UniProt Q9QYN8)) for entry CN(C)C(=O)c1ccc(Oc2ccc3c(c2)CCC2(CCN(C4CCC4)CC2)O3)nc1 [Example 407] is 0.2 to 1 µM

Reported Ki (rat histamine H3 receptor (Rattus norvegicus, UniProt Q9QYN8)) for entry c1cc2c(cc1O[C@@H]1CCOC1)CCC1(CCN(C3CCC3)CC1)O2 [Example 443] is 0.2 to 1 µM

Reported Ki (rat histamine H3 receptor (Rattus norvegicus, UniProt Q9QYN8)) for entry O=S(=O)(C1CC1)N1CCC(Oc2ccc3c(c2)CCC2(CCN(C4CCC4)CC2)O3)CC1 [Example 437] is < 0.2 µM

Reported Ki (rat histamine H3 receptor (Rattus norvegicus, UniProt Q9QYN8)) for entry c1cc2c(cc1OC1CCNCC1)CCC1(CCN(C3CCC3)CC1)O2 [Example 425] is < 0.2 µM

---

parameterMeasured: melting point

- Nc1ccc(-c2ccc3c(c2)COC2(CCN(C4CCC4)CC2)O3)cn1: 201 to 203 °C
- COC(=O)N1CCN(c2ccc3c(c2)CCC2(CCN(C4CCC4)CC2)O3)CC1: 157 to 158 °C

Recorded melting point (compound `CCc1cc(OC)ncc1-c1ccc2c(c1)COC1(CCN(C3CCC3)CC1)O2` ): 156 to 160 °C

Recorded melting point (compound `O=C(c1ccc(-c2ccc3c(c2)COC2(CCN(C4CCC4)CC2)O3)cc1)N1CCC(O)CC1` ): 100.4 to 102.2 °C

Recorded melting point (compound `C1=C(c2ccc3c(c2)COC2(CCN(C4CCC4)CC2)O3)CCOC1` ): 168 to 169 °C

Recorded melting point (compound `c1cc2c(cc1N1CCC1)CCC1(CCN(C3CCC3)CC1)O2` ): 118 to 120 °C

Recorded melting point (compound CNC(=O)C1CC(O)(c2ccc3c(c2)COC2(CCN(C4CCC4)CC2)O3)C1 (centres unmarked) ): 246 to 248 °C

Recorded melting point (compound `CCS(=O)(=O)c1c[nH]c(=O)cc1-c1ccc2c(c1)COC1(CCN(C3CCC3)CC1)O2` ): 190 to 192 °C

---

Below is a list of entries, each paired with its recorded melting point value.

* CNC(=O)c1ccc(-c2ccc3c(c2)COC2(CCN(C4CCC4)CC2)O3)cc1OC | 175 to 177 °C
* OC1(c2ccc3c(c2)COC2(CCN(C4CCC4)CC2)O3)CCC2(CC1)OCCO2 | 191 to 192 °C
* CC(C)Cn1cc(-c2ccc3c(c2)CCC2(CCN(C4CCC4)CC2)O3)cn1 | 106 to 108 °C
* CC(C)OCCNC(=O)c1ccc(-c2ccc3c(c2)COC2(CCN(C4CCC4)CC2)O3)cc1 | 155.5 to 157.3 °C
* c1csc(N2CCN(c3ccc4c(c3)CCC3(CCN(C5CCC5)CC3)O4)CC2)n1 | 182 to 184 °C
* CCc1[nH]c(=O)ccc1-c1ccc2c(c1)COC1(CCN(C3CCC3)CC1)O2 | 230 to 231 °C
* Cc1nc(-c2ccc3c(c2)COC2(CCN(C4CCC4)CC2)O3)cs1 | 151 to 153 °C
* O=c1ccc(-c2ccc3c(c2)CCC2(CCN(C4CCC4)CC2)O3)c[nH]1 | 260 to 262 °C

Recorded melting point (compound `O=C(N[C@@H]1CCOC1)c1ccc(-c2ccc3c(c2)CCC2(CCN(C4CCC4)CC2)O3)cc1` ): 194 to 195 °C

Recorded melting point (compound `O=C(c1ccc(-c2ccc3c(c2)CCC2(CCN(C4CCC4)CC2)O3)cc1)N1CCC[C@H](O)C1` ): 82 to 83.3 °C

Recorded melting point (compound `COc1ccc(-c2cc3c(cc2C)OC2(CCN(C4CCC4)CC2)OC3)cn1` ): 96 to 98 °C

Recorded melting point (compound `O=C(Nc1ccc2c(c1)COC1(CCN(C3CCC3)CC1)O2)C1CCOCC1` ): 228 to 229 °C

Recorded melting point (compound `O=C(Nc1ccc(Cl)cc1)Nc1ccc2c(c1)COC1(CCN(C3CCC3)CC1)O2` ): 201 to 203 °C

Recorded melting point (compound `O=C(C1CCN(c2ccc3c(c2)COC2(CCN(C4CCC4)CC2)O3)CC1)N1CCOCC1` ): 282 to 284 °C

Recorded melting point (compound `O=C(N1CCOCC1)N1CCN(c2ccc3c(c2)COC2(CCN(C4CCC4)CC2)O3)CC1` ): 174 to 176 °C

Recorded melting point (compound `O=C(N[C@@H]1CCOC1)c1ccc(-c2ccc3c(c2)COC2(CCN(C4CCC4)CC2)O3)cc1` ): 198 to 199 °C

Recorded melting point (compound `Cc1cscc1-c1ccc2c(c1)COC1(CCN(C3CCC3)CC1)O2` ): 91 to 93 °C

---

measurementTarget: rat histamine H3 receptor (Rattus norvegicus)
Construct: encoding the entire 445-amino-acid rat histamine H3 receptor; expressed in transfected cells; membrane preparation
testMethodNotes: Rat H3 radioligand binding ([3H]-N-alpha-methylhistamine, SPA)
statedConditions: rat H3 binding, Table D; read-out: Rat H3 Ki
parameterMeasured: Ki

Sample records with Ki:
- CC1CN=C(CCc2ccc3c(c2)COC2(CCN(C4CCC4)CC2)O3)O1 (centres unmarked): < 200 nM
- O=c1cc(-c2ccc3c(c2)COC2(CCN(C4CCC4)CC2)O3)c(Cl)c[nH]1: < 200 nM
- Cc1noc(COc2ccc3c(c2)CCC2(CCN(C4CCC4)CC2)O3)n1: < 200 nM

Recorded Ki (compound `CN(C)C(=O)c1ccc(-c2ccc3c(c2)COC2(CCN(C4CCC4)CC2)O3)cc1Cl` ): < 200 nM

Recorded Ki (compound `CC(C)n1cc(-c2ccc3c(c2)COC2(CCN(C4CCC4)CC2)O3)ccc1=O` ): < 200 nM

Recorded Ki (compound `COc1ccc(-c2ccc3c(c2)COC2(CCN(C4COC4)CC2)O3)cn1` ): > 1000 nM

Recorded Ki (compound `O=C(NC1CCOCC1)c1ccc(-c2ccc3c(c2)COC2(CCN(C4CCC4)CC2)O3)cc1Cl` ): < 200 nM

Recorded Ki (compound `COCc1cc(-c2ccc3c(c2)COC2(CCN(C4CCC4)CC2)O3)c[nH]c1=O` ): < 200 nM
